Entries and their Mean (number of MBP-positive cells/number of Hoechst33342-positive cells) values follow.
System: rat oligodendrocyte progenitor cells
Experimental protocol: Promotive activity of rat oligodendrocyte progenitor cell differentiation-2 (immunostaining of MBP)
Format: cell-based
Run parameters: Test 3; vitamin D derivative 2 μM, T3 30 nM; 4 days
Answer field: number only, no words.

Illustrative cases are given below, each with its answer.
INSERT INTO results (compound, test_value) VALUES
  ('C[C@H](CN1CCCC[C@@H]1C)[C@H]1CC[C@H]2/C(=C/C=C3C[C@@H](O)C[C@H](O)C3)CCC[C@]12C [Compound G001]', 0.34),
  ('C[C@H](CN1CCCC[C@H]1C)[C@H]1CC[C@H]2/C(=C/C=C3C[C@@H](O)C[C@H](O)C3)CCC[C@]12C [Compound G002]', 0.33);

Would you kindly look at the next entry?
Task: Report Mean (number of MBP-positive cells/number of Hoechst33342-positive cells) for C[C@H](CN1CCCCC1(C)C)[C@H]1CC[C@H]2/C(=C/C=C3C[C@@H](O)C[C@H](O)C3)CCC[C@]12C [Compound G003] please.
Result: 0.47

---

Experimental protocol: Evaluation of brain penetration in mice (blood and brain concentration at brain Cmax)
Type: in vivo, mouse
Run parameters: 1 mg/kg single oral dose, C57BL/6J mice, n=3
Okay, here is how we bin by Concentration in blood (mean ± SD) at brain Cmax: 1 = under 200 nM, 2 = from 200 nM up to 400 nM, 3 = 400 nM and over

Previously resolved entries follow.
INSERT INTO measurements (molecule, class_assignment) VALUES
  ('C[C@H](CN1CC[C@@H](CC(F)F)C1)[C@H]1CC[C@H]2/C(=C/C=C3C[C@@H](O)C[C@H](O)C3)CCC[C@]12C', 1),
  ('C=C1/C(=C\C=C2/CCC[C@]3(C)[C@@H]([C@H](C)CN4CC[C@H](C(C)(F)F)C4)CC[C@@H]23)C[C@@H](O)[C@H](C)[C@@H]1O', 1),
  ('C=C1/C(=C\C=C2/CCC[C@]3(C)[C@@H]([C@H](C)CN4CC[C@H](CC(F)F)C4)CC[C@@H]23)C[C@@H](O)C[C@@H]1O', 1),
  ('C[C@H](CN1CCOC2(CC2)C1)[C@H]1CC[C@H]2/C(=C/C=C3C[C@@H](O)C[C@H](O)C3)CCC[C@]12C', 2),
  ('C=C1[C@H](O)CC(=C/C=C2\CCC[C@]3(C)[C@@H]([C@H](C)CN4CC[C@H](C(F)F)C4)CC[C@@H]23)C[C@H]1O', 2),
  ('C[C@H](CCN1CCOCC1)[C@H]1CC[C@H]2/C(=C/C=C3C[C@@H](O)C[C@H](O)C3)CCC[C@]12C', 3),
  ('C=C1[C@H](O)CC(=C/C=C2\CCC[C@]3(C)[C@@H]([C@H](C)CN4CCC(CC(F)F)CC4)CC[C@@H]23)C[C@H]1O', 1),
  ('C[C@H](CN1CC[C@@H](C(C)(F)F)C1)[C@H]1CC[C@H]2/C(=C/C=C3C[C@@H](O)C[C@H](O)C3)CCC[C@]12C', 2),
  ('C[C@H](CN1CCC(O)(C(F)(F)F)C1)[C@H]1CC[C@H]2/C(=C/C=C3C[C@@H](O)C[C@H](O)C3)CCC[C@]12C (single isomer, unassigned) [Compound B045b]', 3),
  ('C=C1/C(=C\C=C2/CCC[C@]3(C)[C@@H]([C@@H](C)CN4CC[C@H](F)C4)CC[C@@H]23)C[C@@H](O)C[C@@H]1O', 3);

Task: GET /class?item= C=C1[C@H](O)CC(=C/C=C2\CCC[C@]3(C)[C@@H]([C@H](C)CN4CCCC(O)(C(F)F)C4)CC[C@@H]23)C[C@H]1O (single isomer, unassigned) [Compound C036b]
Result: 3

Task: Repeat with C[C@H](CN1CC[C@@H](C(F)F)C1)[C@H]1CC[C@H]2/C(=C/C=C3C[C@@H](O)C[C@H](O)C3)CCC[C@]12C
Result: 2

Task: Repeat with C=C1/C(=C\C=C2/CCC[C@]3(C)[C@@H]([C@@H](C)CN4CCC(O)(C(F)(F)F)CC4)CC[C@@H]23)C[C@@H](O)[C@H](C)[C@@H]1O
Result: 3

Task: Repeat with C=C1[C@H](O)CC(=C/C=C2\CCC[C@]3(C)[C@@H]([C@H](C)CN4CC[C@@H](C(F)F)C4)CC[C@@H]23)C[C@H]1O
Result: 1

Task: Repeat with C=C1/C(=C\C=C2/CCC[C@]3(C)[C@@H]([C@H](C)CN4CC[C@@H](C(F)F)C4)CC[C@@H]23)C[C@@H](O)C[C@@H]1O
Result: 3
